Provide the recorded abundance fitness for the entries that follow.
B1: Homeobox protein cut-like 1, residues 548 to 629; numbered along this chain, P39880 (parent)
chain: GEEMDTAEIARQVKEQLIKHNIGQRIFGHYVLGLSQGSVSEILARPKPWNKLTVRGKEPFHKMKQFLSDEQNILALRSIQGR

- Variants of: B1
- EXPERIMENT_DESCRIPTION: abundance fitness (aPCA) (normalised: wild type 0, dead -1); higher = more abundant; growth selection in yeast, the domain comes from the species named
- CONDITION_DETAILS: Homo sapiens
Numbers only.

Here are 5 variants together with their reported answers.
T53G | -0.032
E3W | -0.017
E2G | -0.145
H61C | -0.134
T53A | -0.341

// batch mode: one abundance fitness value per listed entry
1. G23L
2. V13M
3. S78N

A:
-0.081
-0.263
0.018

// batch mode: one abundance fitness value per listed entry
1. L52D
2. D69Y
3. L43T
4. K57P
5. R82V
6. L32G
7. S38A

A:
-1.17
-0.351
-0.922
-0.663
0.024
-0.839
0.072

// batch mode: one abundance fitness value per listed entry
1. S78E
2. A75M
3. F60R
4. E3Q

A:
1. 0.087
2. -0.039
3. -1.01
4. -0.089
